- target under test: human/mouse CD137 chimera 1551 (human/mouse chimera) (UniProt Q07011)
- assay overview: flow cytometry, transfected 293-F cells
measurement type: relative MFI normalized to full-length human CD137
// no unit string in output, number only

Reference set, count: 2
binder="1204/1205 (antibody, V domains shown) VH: EVQLLESGGGLVQPGGSLRLSCAASGFTFSSYYMGWVRQAPGKGLEWVSGIGSYYGYTGYADSVKGRFTISRDNSKNTLYLQMNSLRAEDTAVYYCARAYYDYNYYYAYFDYWGQGTLVTVSS VL: DIQMTQSPSSLSASVGDRVTITCRASQSISSYLNWYQQKPGKAPKLLIYAASSLQSGVPSRFSGSGSGTDFTLTISSLQPEDFATYYCQQSVPHYPFTFGQGTKLEIK" numeric_value=0.11
binder="1620/1621 (antibody, V domains shown) VH: EVQLLESGGGLVQPGGSLRLSCAASGFTFSGYYMYWVRQAPGKGLEWVSGISSSGSYTYYADSVKGRFTISRDNSKNTLYLQMNSLRAEDTAVYYCARSVGPYFDYWGQGTLVTVSS VL: DIQMTQSPSSLSASVGDRVTITCRASQSISSYLNWYQQKPGKAPKLLIYAASSLQSGVPSRFSGSGSGTDFTLTISSLQPEDFATYYCQQGVGPYTFGQGTKLEIK" numeric_value=0.33

If you can, please state the reported relative MFI normalized to full-length human CD137 value of 1200/1201 (antibody, V domains shown) VH: EVQLLESGGGLVQPGGSLRLSCAASGFTFSSYAMSWVRQAPGKGLEWVSGISGGGGGTYYADSVKGRFTISRDNSKNTLYLQMNSLRAEDTAVYYCARDVAYFDYWGQGTLVTVSS VL: DIQMTQSPSSLSASVGDRVTITCRASQSISSYLNWYQQKPGKAPKLLIYAASSLQSGVPSRFSGSGSGTDFTLTISSLQPEDFATYYCQQYYIPHTFGQGTKLEIK .
0.04
